# System: Mycobacterium tuberculosis
# protocolDescription: In vitro antimycobacterial activity against thiacetazone resistant Mycobacterium tuberculosis strain
# Format: functional
Give measured MIC for each item. Keep answers brief.

Q: Consider the compound shown here: N#CC[n+]1ccc(C(=O)NNCC(F)(F)F)cc1 What is its recorded MIC?
Result: > 25 µg/mL

Q: Recorded MIC of N#CC[n+]1ccc(C(=O)NNCc2ccccc2)cc1 , please.
Result: > 25 µg/mL

Q: # query: MIC of entry C/C=N/NC(=O)c1ccncc1
Result: > 0.75 µg/mL
